Here, each record is paired with measured Cmax data.
- Test system: Mus musculus
- assay.notes: Cmax in Swiss mouse at 20 mg/kg, po measured after 24 hrs by LC-MS analysis
- Type: ADME, organism-based
- Parameters: dose 20 mg/kg, route oral
- condition.description: in vivo
Kindly provide the numeric value in nM only, without the unit symbol.

Worked set:
Cc1cc(NC2Cc3ccccc3C2)n2ncnc2n1	500
Cc1cc(Nc2ccc3sccc3c2)n2ncnc2n1	400
Cc1cc(Nc2ccc3c(c2)CCCC3)n2ncnc2n1	2200
Cc1cc(Nc2ccc(C(C)C)cc2)n2ncnc2n1	800
Cc1cc(Nc2ccc(C(C)(C)C)c(F)c2)n2ncnc2n1	250
Cc1cc(Nc2ccc(S(F)(F)(F)(F)F)cc2)n2ncnc2n1	12000
Cc1cc(Nc2cc(F)c(C(F)(F)F)c(F)c2)n2ncnc2n1	33000

Now for the compound whose Cmax we want.
query: Check Mus musculus data and give Cmax for Cc1cc(NC2CCc3ccccc3C2)n2ncnc2n1 (stereo not drawn) .
result: 7800
